Tested on: patient-derived tumor cells
ASSAY: Proliferation assay using patient tumor cells (EdU incorporation, 3D matrix)
Type: cell-based
EXPERIMENTAL_CONTEXT: Homo sapiens, person; Squamous carcinoma H&N; Right nasal; read-out: Prolif IC50
ATTRIBUTE_MEASURED: IC50 (nM)
Supply the numeric figure in nM, leaving out any unit text.

Task: Record request: IC50 value, item CCN1C(=O)CNc2ncc(-c3ccc(-c4nc[nH]n4)nc3C)nc21
Result: 240

* * *

Test system: patient-derived tumor cells
ASSAY: Proliferation assay using patient tumor cells (EdU incorporation, 3D matrix)
Type: cell-based
EXPERIMENTAL_CONTEXT: Homo sapiens, person; Squamous cell H&N; Left neck, cervical; read-out: Prolif IC50
ATTRIBUTE_MEASURED: pIC50
Worth noting: pIC50 values are minus log10 of concentrations stated in mol/L.

Task: Which pIC50 is reported with patient-derived tumor cells for this entry: CCN1C(=O)CNc2ncc(-c3ccc(-c4nc[nH]n4)nc3C)nc21 ?
Result: 6.37

* * *

System: patient-derived tumor cells
ASSAY: Proliferation assay using patient tumor cells (EdU incorporation, 3D matrix)
Format: cell-based
EXPERIMENTAL_CONTEXT: Homo sapiens, person; Squamous cell H&N; Left tonsil; read-out: Prolif IC50
ATTRIBUTE_MEASURED: IC50 (µM)
Supply the numeric figure in µM, leaving out any unit text.

Task: Record request: IC50 value, item CCN1C(=O)CNc2ncc(-c3ccc(-c4nc[nH]n4)nc3C)nc21 [Compound 1]
Result: 0.162

* * *

System: A253
ASSAY: Growth inhibition assay for head and neck (HN) cancer cell lines
Type: cell-based
EXPERIMENTAL_CONTEXT: Homo sapiens, 72 hours, Cell Titer-Glo
ATTRIBUTE_MEASURED: IC50

Task: Record request: IC50 value, item CCN1C(=O)CNc2ncc(-c3ccc(-c4nc[nH]n4)nc3C)nc21
Result: 378 nM

* * *

Tested on: RPMI-2650
ASSAY: Growth inhibition assay for head and neck (HN) cancer cell lines
Format: cell-based
EXPERIMENTAL_CONTEXT: Homo sapiens, 72 hours, Cell Titer-Glo
ATTRIBUTE_MEASURED: pIC50
Worth noting: pIC50 values are minus log10 of concentrations stated in mol/L.

Task: Which pIC50 is reported with RPMI-2650 for this entry: CCN1C(=O)CNc2ncc(-c3ccc(-c4nc[nH]n4)nc3C)nc21 ?
Result: 6.41

* * *

System: patient-derived tumor cells
ASSAY: Proliferation assay using patient tumor cells (EdU incorporation, 3D matrix)
Format: cell-based
EXPERIMENTAL_CONTEXT: Homo sapiens, person; Tongue; Left neck mass; read-out: Prolif IC50
ATTRIBUTE_MEASURED: IC50 (µM)
Supply the numeric figure in µM, leaving out any unit text.

Task: Record request: IC50 value, item CCN1C(=O)CNc2ncc(-c3ccc(-c4nc[nH]n4)nc3C)nc21
Result: 0.377

Just for reference, patent US20130245026A1 is where these values come from.
